Values from the supplement of paper PMC9112550

Test system: Escherichia coli TOP10;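 note: peptides expressed intracellularly from a pBAD plasmid library in pooled LB shake-flask culture, induced with 0.3% L-arabinose, DNA abundance read by NGS, three biological replicates, DESeq2 with apeglm shrinkage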
procedure summary: shrunken log2 fold change of peptide-encoding DNA abundance (4.5 h post-induction vs induction); higher = less antimicrobial activity (less host growth inhibition)
conditions: time post-induction: 4.5 h; library: site-saturation at positions 5, 18, 19, 20
shrunken log2 fold change reference
Provide a numeric answer; units are not to be included.

Reference set, count: 5
RRIRWRPPRLPRPRPRPMAEPRP : 0.203
RRIRIRPPRLPRPRPRPSMIPRP : -0.458
RRIRTRPPRLPRPRPRPYVAPRP : -0.562
RRIRKRPPRLPRPRPRPTHDPRP : -0.101
RRIRPRPPRLPRPRPRPKQGPRP : 0.0197

Identify measured shrunken log2 fold change associated with RRIRSRPPRLPRPRPRPIHIPRP -0.157

Quick one: give measured shrunken log2 fold change for RRIRYRPPRLPRPRPRPNHLPRP -1.32

Supply reported shrunken log2 fold change belonging to this sequence: RRIRERPPRLPRPRPRPGVDPRP 0.114

Provide measured shrunken log2 fold change value, entry: RRIRFRPPRLPRPRPRPDRWPRP 0.0556

Give recorded shrunken log2 fold change. RRIRRRPPRLPRPRPRPTPIPRP 1.03
